assay: Selectivity index, ratio of CC50 for green monkey Vero76 cells to EC50 for Coxsackievirus B2; type: toxicity, cell-based, Vero 76; conditions: read-out: Ratio CC50/EC50
Task for the reader: assign each of the following compounds its reported selectivity ratio.

Recorded selectivity ratio for O=C1C2=C(SCCS2)C(=O)N1CCCCN1CCN(c2ccccn2)CC1 , please?
> 3.12

Recorded selectivity ratio for O=C1C2=C(SCCS2)C(=O)N1CCCCN1CCN(c2ccccc2)CC1 , please?
> 1.51

Recorded selectivity ratio for O=C1C2=C(SCCS2)C(=O)N1CCCCN1CCN(c2ccc(F)cc2)CC1 , please?
> 4.76

Recorded selectivity ratio for O=C1C2=C(SCCS2)C(=O)N1CCCN1CCN(c2ccc(F)cc2)CC1 , please?
> 4.8
